Recorded values, source PubChem BioAssay (NCI).

Tested on: OVCAR-4 ovarian
Test: NCI tumour cell line growth inhibition, 48 h
Result type: GI50

// sample O=C(Nc1ccc(OCc2nnc(-c3ccccc3)o2)c(F)c1)Nc1ccc(Cl)c(C(F)(F)F)c1 , its GI50 was 2.49 µM

// sample OCC1OC(n2cnc3c2NC=NC[C@H]3O)CC1O (stereo partly drawn) , its GI50 was > 588 µM

// sample C=CC[C@@H]1/C=C(\C)C[C@H](C)C[C@H](OC)[C@H]2O[C@@](O)(C(=O)C(=O)N3CCCC[C@H]3C(=O)O[C@H](/C(C)=C/C3CC[C@@H](O)[C@H](OC)C3)[C@H](C)[C@@H](O)CC1=O)[C@H](C)C[C@@H]2OC (stereo partly drawn) , its GI50 was 13.9 µM

// sample C=C(C)[C@@H]1CC[C@]2(C(=O)O)CC[C@]3(C)[C@H](CC[C@@H]4[C@@]5(C)C/C(=C/c6ccc(OC)cc6)C(=O)C(C)(C)[C@@H]5CC[C@]43C)[C@@H]12 , its GI50 was 2.5 µM

// sample CS(=O)(=O)c1ccc(Oc2cc(F)cc(C#N)c2)c2c1[C@H](O)C(F)(F)C2 , its GI50 was > 100 µM

// sample COc1ccc(-c2nc(N3CCOCC3)c3sc(CN(C)c4ncc(C(=O)NO)cn4)cc3n2)cn1 , its GI50 was 0.0147 µM

// sample Clc1ccc(C2=NN[C@H](c3cn(-c4ccccc4)nc3-c3ccccc3)C2)cc1 , its GI50 was 4.87 µM

// sample CCCC1=C(C(=O)OCC)C(c2ccccc2OC)C(C#N)=C(N)O1 (stereo not drawn) , its GI50 was 65.4 µM

###

Tested on: HT29 colon
Assay: NCI tumour cell line growth inhibition, 48 h
I'd be grateful if you could share measured TGI for these entries.

// sample COc1cc(Nc2nc3cc(C(F)(F)F)ccc3nc2-c2ccccc2)cc(OC)c1OC , its TGI was > 100 µM

// sample CN(C)C(=S)N/N=C(\C(=N/NC(=S)N(C)C)c1ccccn1)c1ccccn1 , its TGI was 17.6 µM

// sample COc1cc2c(cc1OC)C1Cc3cc(OC)c(OC)cc3C(C2)O1 , its TGI was > 100 µM

// sample COc1ccc2c(c1)CCN1CCCc3ccc(OC)cc3C21 (stereo not drawn) , its TGI was > 100 µM

// sample N#Cc1cc(N(CCCl)CCCl)c([N+](=O)[O-])cc1[N+](=O)[O-] , its TGI was > 100 µM

// sample COc1cc(C2S/C(=C/c3ccccc3)C(=O)N2c2cc(Cl)c(Cl)cc2Cl)cc(OC)c1OC (stereo not drawn) , its TGI was > 100 µM

// sample CCOC(=O)c1nnsc1NN=C(C)C , its TGI was > 100 µM

// sample Cc1ccc2[nH]c3c(c2c1)CCC/C3=N/N=C(N)N , its TGI was 3.39 µM

// sample c1ccc(CCN2CCOCC2)nc1 , its TGI was > 100 µM

// sample CC(C)n1c(=O)[nH]n(-c2ccccc2)c1=O , its TGI was > 100 µM

// sample CCC1CC(C)=CCN1S(=O)(=O)c1ccc(C)cc1 (stereo not drawn) , its TGI was 39.3 µM

// sample Cc1[nH]nc2ccc3nc(-c4ccc5[nH]ncc5c4)c4c(c3c12)CCCC4 , its TGI was 12.5 µM

// sample Cc1c(-c2nnc(-c3ccc(F)cc3)o2)nnn1-c1ccnc2c(C(F)(F)F)cccc12 , its TGI was > 100 µM

// sample CO/N=C(\C(=O)Nc1cncs1)c1csc(N)n1 , its TGI was > 10 µM

// sample COc1cc(/C=C2\C(=O)N(c3ccccc3)c3ccccc32)cc(OC)c1OC , its TGI was 13.9 µM

// sample C=C(C)[C@@H]1CC[C@]2(C(=O)O)CC[C@]3(C)[C@H](CC[C@@H]4[C@@]5(C)C/C(=C/c6ccc(OC)cc6)C(=O)C(C)(C)[C@@H]5CC[C@]43C)[C@@H]12 , its TGI was 10.2 µM

// sample CC(=O)OC1CC2C(C)(C)C(=O)C=C[C@]2(C)C2CCC3(C)C(c4ccoc4)[C@@H](O)[C@H]4O[C@]43[C@]12C (stereo partly drawn) , its TGI was 40.3 µM

// sample CCC12CC(c3ccccc3)C(C(=O)N1)C(=O)N2 (stereo not drawn) , its TGI was > 100 µM

// sample CCC1c2[nH]c3ccccc3c2C[C@H]2C(=O)N3CCC[C@H]3C(=O)N12 (stereo partly drawn) , its TGI was > 100 µM

// sample O=C(CN1C(=O)S/C(=C\C(Cl)=C\c2ccccc2)C1=O)NCCc1ccc(O)cc1 , its TGI was 12.3 µM

// sample C/C=C1/CN2CCC34c5ccccc5N(C)C23C2CC1C4(C(=O)OC)C(O)O2 (stereo not drawn) , its TGI was > 100 µM

// sample C=Cc1cc(OC)c2c(c1)c(=O)oc1c2cc(OC)c2c(O)ccc(C3OC(C)C(O)C(C)(O)C3O)c21 (stereo not drawn) , its TGI was 0.666 µM

// sample O=C(Nc1sccc1S(=O)(=O)c1ccc(Cl)cc1)c1ccccc1 , its TGI was > 100 µM
